# ASSAY COMMENT: Quantitative High-Throughput drug screen in 47 multiple myeloma cell lines against the NCATS MIPE library collection: LP1_DSMZ cell viability assay (AID 1918982); further: nearly all actives have a fitted effect of over 35% in size
# CONDITION SET: LP1 myeloma viability, CellTiter-Glo ATP luminescence, 48 h; series mostly up to 45.8 µM
Records with an inconclusive call do not appear. The source made the active and inactive calls. The call rests on the fitted dose curve; in most records, active means well fitted cell-killing curve with a large enough effect; inconclusive means small, poorly fitted or top-dose-only effect, or effect the other way; inactive means no such curve, though single readings can be large or run the other way.
Pick one and only one: active, inactive

[in] Called result for CC(O)=C(C#N)C(=O)Nc1cc(Br)ccc1Br
[out] inactive

[in] # iterate: O=[N+]([O-])c1ncc[nH]1
[out] inactive

[in] # iterate: COCC1(CO)C(=O)C2CCN1CC2 (stereo unspecified)
[out] active

[in] # iterate: CC(C)(O)C=CC(=O)[C@](C)(O)[C@H]1[C@H](O)C[C@]2(C)[C@@H]3CC=C4[C@@H](C=C(O)C(=O)C4(C)C)[C@]3(C)C(=O)C[C@@]12C
[out] active

[in] # iterate: Cc1nc(-c2ccc(-c3ccc(C(=O)N4CCc5cc6c(cc54)C4(CCN(C)CC4)CO6)cc3)c(C)c2)no1
[out] inactive

[in] # iterate: CC[C@@H](C(N)=O)N1CCCC1=O
[out] inactive
